System: HBsAg in HBV-infected PHH
Test: Cryopreserved primary human hepatocytes (PHH) HBV infection assay, extracellular HBsAg (CLIA)
Assay type: cell-based
Conditions: Hepatitis B virus, Hepatocyte, 216 h, read-out: HBsAg IC50, Cryopreserved PHH infected with HBV, 9 days post-compound treatment, extracellular HBsAg
Experimental: This assay is used to confirm the anti-HBV effect of the compounds in HBV PHH infection assay. […] At 9 days post-compound treatment, extracellular HBsAg level were measured with Chemiluminescence Immuno Assay (CLIA) kit (Autobio, HBsAg Quantitative CLIA). Extracellular HBV DNA was extracted by MagNA Pure 96 system (Roche) and then determined by quantitative PCR with the following primers and probe: […]
Class key for IC50 values: band 1 = under 3 µM, band 2 = from 3 µM up to 6 µM, band 3 = 6 µM and over

MOLECULE	SYSTEM TESTED	CAT
O=C(O)CCCOc1cc(Br)ccc1-c1cc(=O)c2cccc(Cl)c2o1	HBsAg in HBV-infected PHH	band 1
COc1cc(O[C@H]2C[C@H](C(=O)O)C2)c(-c2cc(=O)c3cccc(Cl)c3o2)cc1C	HBsAg in HBV-infected PHH	band 2
Cc1ccc(-c2cc(=O)c3c(O)ccc(Cl)c3o2)c(O[C@H]2C[C@@H](C(=O)O)C2)c1	HBsAg in HBV-infected PHH	band 1

Input Cc1ccc(-c2cc(=O)c3cccc(Cl)c3o2)c(O[C@H]2C[C@H](C(=O)NS(C)(=O)=O)C2)c1 ; output its category
band 2

Input COc1cc(-c2cc(=O)c3cccc(Cl)c3o2)c(OC2CC(C(=O)O)C2)cc1Br (centres unmarked) ; output its category
band 2
